# EXPERIMENTAL PROTOCOL: Cytotoxicity against Vero cells
# CONDITION PARAMETERS: African green monkey
OBSERVATION TYPE: IC50

Value of measured IC50 for the entry CN[C@H](CC(C)C)C(=O)N[C@H]1C(=O)N[C@@H](CC(N)=O)C(=O)N[C@H]2C(=O)N[C@H]3C(=O)N[C@H](C(=O)N[C@H](C(=O)O)c4cc(O)cc(O)c4-c4cc3ccc4O)[C@H](O)c3ccc(c(Cl)c3)Oc3cc2cc(c3O[C@@H]2O[C@H](CO)[C@@H](O)[C@H](O)[C@H]2O[C@H]2C[C@](C)(N)[C@H](O)[C@H](C)O2)Oc2ccc(cc2Cl)[C@H]1O : > 100 µg/mL

Where these numbers come from: paper PMC7286788
